Target: T1, RBFOX1 RRM RbFoxmut (Fox-RRM*) (Homo sapiens, UniProt Q9NWB1 109-208, R118D;E147R;N151S;E152T)
T1 sequence: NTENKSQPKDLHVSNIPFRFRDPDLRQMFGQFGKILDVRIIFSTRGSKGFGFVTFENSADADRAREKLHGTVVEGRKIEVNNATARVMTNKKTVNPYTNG
Assay: EMSA; HiTS-Eq, 1 nM pool, 10 min; buffer printed only for the single-RNA assays: 10 mM Tris pH 7.5, 150 mM NaCl, 3.4 mM EDTA, 0.001% NP-40, 30 C
Conditions: tags: His6 N-terminal (pET28a); label: 5' 32P
Over roughly 16,000 sequences, “ka relative to ugcaugu” has its median near 0.096; the highest 2% begin near 0.35. The sample holds the highest values, similar sequences and a random draw of the others, so the mix is not that of the screen.
Measured binding signal by item

Look over these answered cases.
- binder: "UGCGUGG (DNA:RNA) RNA: GGGAGACCGGAAUUCAGAUUGUCCUGCGUGGUUAAAUCCCGUCGUAGCCACCA DNA 1: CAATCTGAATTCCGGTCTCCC DNA 2: TGGTGGCTACGACGGGATT"
  reportedResult: "0.138 KA relative to UGCAUGU"
- binder: "AGCGAUU (DNA:RNA) RNA: GGGAGACCGGAAUUCAGAUUGUCCAGCGAUUUUAAAUCCCGUCGUAGCCACCA DNA 1: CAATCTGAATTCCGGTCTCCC DNA 2: TGGTGGCTACGACGGGATT"
  reportedResult: "0.072 KA relative to UGCAUGU"
- binder: "UGCAUAA (DNA:RNA) RNA: GGGAGACCGGAAUUCAGAUUGUCCUGCAUAAUUAAAUCCCGUCGUAGCCACCA DNA 1: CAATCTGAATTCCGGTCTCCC DNA 2: TGGTGGCTACGACGGGATT"
  reportedResult: "0.146 KA relative to UGCAUGU"
- binder: "UGCCUGG (DNA:RNA) RNA: GGGAGACCGGAAUUCAGAUUGUCCUGCCUGGUUAAAUCCCGUCGUAGCCACCA DNA 1: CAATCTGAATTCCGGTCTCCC DNA 2: TGGTGGCTACGACGGGATT"
  reportedResult: "0.233 KA relative to UGCAUGU"
- binder: "UAAGUUC (DNA:RNA) RNA: GGGAGACCGGAAUUCAGAUUGUCCUAAGUUCUUAAAUCCCGUCGUAGCCACCA DNA 1: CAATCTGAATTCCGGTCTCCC DNA 2: TGGTGGCTACGACGGGATT"
  reportedResult: "0.0634 KA relative to UGCAUGU"

The recorded binding signal for UGCGUCA (DNA:RNA) RNA: GGGAGACCGGAAUUCAGAUUGUCCUGCGUCAUUAAAUCCCGUCGUAGCCACCA DNA 1: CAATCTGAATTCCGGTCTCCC DNA 2: TGGTGGCTACGACGGGATT is 0.155 KA relative to UGCAUGU

The recorded binding signal for AGACGGA (DNA:RNA) RNA: GGGAGACCGGAAUUCAGAUUGUCCAGACGGAUUAAAUCCCGUCGUAGCCACCA DNA 1: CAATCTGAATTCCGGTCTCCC DNA 2: TGGTGGCTACGACGGGATT is 0.0873 KA relative to UGCAUGU

The recorded binding signal for GUCCGAG (DNA:RNA) RNA: GGGAGACCGGAAUUCAGAUUGUCCGUCCGAGUUAAAUCCCGUCGUAGCCACCA DNA 1: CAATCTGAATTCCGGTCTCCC DNA 2: TGGTGGCTACGACGGGATT is 0.129 KA relative to UGCAUGU

The recorded binding signal for CCGGGUG (DNA:RNA) RNA: GGGAGACCGGAAUUCAGAUUGUCCCCGGGUGUUAAAUCCCGUCGUAGCCACCA DNA 1: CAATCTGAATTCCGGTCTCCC DNA 2: TGGTGGCTACGACGGGATT is 0.163 KA relative to UGCAUGU
